# System: LY8
# protocol-details: DLBCL cell line sensitivity to IKE, Cell Titer-Glo viability
# Type: cell-based
# experimental-context: read-out: cell line sensitivity class (IC50), LY8, IKE 24 hours
result-type: IC50

Name the recorded IC50 of the molecule listed here: `CC(C)Oc1ccc(C(=O)Cn2ccnc2)cc1-n1c(CN2CCN(C(=O)COc3ccc(Cl)cc3)CC2)nc2ccccc2c1=O`
< 100 nM
